# cond: Liquid
Parameter: Normal boiling temperature. Scope: all listed entries.

structure-as-smiles | result-unit | Normal boiling temperature
CO | °C | 64.52
CCO | °C | 78.31
CCCO | °C | 97.04
CC(C)O | °C | 82.26

* * *

Entries annotated with measured mass density
# cond: 298.15 K; 101.33 kPa; Liquid

structure-as-smiles | mass density / kg/m3
CO | 786.5
CCO | 785.1
CC(C)O | 780.8
CCCO | 799.5
